Quick list: MIC Streptococcus pneumoniae (GC 4565) per entry.
# System: Streptococcus sp.
# Protocol Text: In vitro antibacterial evaluation: minimum inhibitory concentration (MIC), broth dilution method
# Type: cell-based
# Conditions Used: Streptococcus pneumoniae (GC 4565); 18 hours at 35° C.
The response must be a number in µg/mL with no trailing unit.

Compound: CC(c1ccccc1)C1NC(=O)CNC(=O)C(CO)NC(=O)C(C(O)C2CNC(=N)N2C2OC(CO)C(O)C(O)C2O)NC(=O)C(C(O)C2CNC(=N)N2)NC(=O)C(Cc2ccc(OC3OC(CO)C(OC4OC(COC(=O)NCc5ccccc5)C(O)C(O)C4O)C(O)C3O)cc2)NC1=O (centres unmarked) [Example 257b]
MIC Streptococcus pneumoniae (GC 4565) (µg/mL): 0.5

input: Form entry - test system: Streptococcus sp.; read-out: MIC Streptococcus pneumoniae (GC 4565); compound: CCCCCNC(=O)OCC1OC(OC2C(CO)OC(Oc3ccc(CC4NC(=O)C(C(C)c5ccccc5)NC(=O)CNC(=O)C(CO)NC(=O)C(C(O)C5CNC(=N)N5C5OC(CO)C(O)C(O)C5O)NC(=O)C(C(O)C5CNC(=N)N5)NC4=O)cc3)C(O)C2O)C(O)C(O)C1O (centres unmarked) [Example 251b]
output: 1

====

Entries and their MIC Coagulase Negative Staphylococcus (GC 4551) values follow.
# Test system: Staphylococcus sp.
# Protocol Text: In vitro antibacterial evaluation: minimum inhibitory concentration (MIC), broth dilution method
# Format: cell-based
# Conditions Used: strain GC 4551; broth dilution, 18 hours at 35° C.
The figure you give is taken to be in µg/mL; do not add the unit.

Molecule: CC(c1ccccc1)C1NC(=O)CNC(=O)C(CO)NC(=O)C(C(O)C2CNC(=N)N2C2OC(CO)C(O)C(O)C2O)NC(=O)C(C(O)C2CNC(=N)N2)NC(=O)C(Cc2ccc(OC3OC(CO)C(OC4OC5COC(c6ccc(-c7cccs7)cc6)OC5C(O)C4O)C(O)C3O)cc2)NC1=O (stereo not drawn)
Numeric Value: 2
//
Molecule: CC(c1ccccc1)C1NC(=O)CNC(=O)C(CO)NC(=O)C(C(O)C2CNC(=N)N2C2OC(CO)C(O)C(O)C2O)NC(=O)C(C(O)C2CNC(=N)N2)NC(=O)C(Cc2ccc(OC3OC(CO)C(OC4OC(COC(=O)OCc5ccccc5)C(O)C(O)C4O)C(O)C3O)cc2)NC1=O (stereo not drawn) [Example 101a]
Numeric Value: 2
//
Molecule: CC(c1ccccc1)C1NC(=O)CNC(=O)C(CO)NC(=O)C(C(O)C2CNC(=N)N2C2OC(CO)C(O)C(O)C2O)NC(=O)C(C(O)C2CNC(=N)N2)NC(=O)C(Cc2ccc(OC3OC(CO)C(OC4OC5COC(c6ccc(C(C)(C)C)cc6)OC5C(O)C4O)C(O)C3O)cc2)NC1=O (stereo not drawn)
Numeric Value: 1
//
Molecule: CCCCCCCC1OCC2OC(OC3C(CO)OC(Oc4ccc(CC5NC(=O)C(C(C)c6ccccc6)NC(=O)CNC(=O)C(CO)NC(=O)C(C(O)C6CNC(=N)N6C6OC(CO)C(O)C(O)C6O)NC(=O)C(C(O)C6CNC(=N)N6)NC5=O)cc4)C(O)C3O)C(O)C(O)C2O1 (stereo not drawn)
Numeric Value: 1
//
Molecule: CSc1ccc(C2OCC3OC(OC4C(CO)OC(Oc5ccc(CC6NC(=O)C(C(C)c7ccccc7)NC(=O)CNC(=O)C(CO)NC(=O)C(C(O)C7CNC(=N)N7C7OC(CO)C(O)C(O)C7O)NC(=O)C(C(O)C7CNC(=N)N7)NC6=O)cc5)C(O)C4O)C(O)C(O)C3O2)cc1 (stereo not drawn)
Numeric Value: 0.5

input: What reported MIC Coagulase Negative Staphylococcus (GC 4551) corresponds to CC(c1ccccc1)C1NC(=O)CNC(=O)C(CO)NC(=O)C(C(O)C2CNC(=N)N2C2OC(CO)C(O)C(O)C2O)NC(=O)C(C(O)C2CNC(=N)N2)NC(=O)C(Cc2ccc(OC3OC(CO)C(OC4OC5COC(CC6CCN(C(=O)OCc7ccccc7)CC6)OC5C(O)C4O)C(O)C3O)cc2)NC1=O (stereo not drawn) on Staphylococcus sp.?
output: 1
